# Test system: rats having artificially promoted high blood pressure (according to Goldblatt)
# assay.comment: blood pressure reduction in rats having artificially promoted high blood pressure (according to Goldblatt), plethysmographic at base of tail
# Format: in vivo
# run.parameters: Rattus norvegicus, sc, 10 mg/kg s.c., single dose, at the time given in the same line, read-out: Maximum blood pressure reduction, systolic (percent of initial value)
Where a name gives a salt, the structure may show the parent alone.
endpoint: change in vivo at 10 mg/kg
Be sure to follow the number with its unit.

Reported change in vivo at 10 mg/kg for COc1ccccc1OCCNCCc1ccccn1 [Compound B, HCl] : what is it?
-20%

Request: COc1ccccc1OCCNCc1ccccn1 [Compound D, HCl]
-22%

Let us now turn to COc1ccccc1OCCNCc1ccncc1 [Compound E, HCl]
-15%

Also Cc1cccnc1CNCCOc1ccccc1Cl [Compound H, hydrate] ?
-16%

Field entry: COc1ccccc1OCCNCCc1ccncc1 [Compound A, HCl]
-25%

Input Cc1cccnc1CNCCOc1ccccc1C#N [Compound J, hydrate]
-11%

Next entry: COc1ccccc1OCCNCc1cccnc1 [Compound C, HCl]
-15%

For Clc1ccccc1OCCCCNCCc1ccncc1 [Compound K, dioxalate monohydrate] then?
-15%

Ok, now N#Cc1ccccc1OCCNCCc1ccncc1 [Compound L, dioxalate hydrate]
-17%

Then what about the compound COc1ccccc1OCCNCc1ncccc1O.Cl.Cl [Compound M, dihydrochloride] ?
-11%
